Quick note: these are GI50 numbers for system: SK-BR-3

1) C=C(C(=O)[C@H](COC(C)=O)[C@H](O)C1(C)O[C@@H]1[C@@H](C)/C=C\C)[C@@H](O)CC(=O)CC (stereo partly shown)	0.469 µM
2) C/C=C\[C@H](C)[C@H]1O[C@@]1(C)[C@@H](O)[C@@H](COC(C)=O)C(=O)[C@H](CO)[C@@H](O)CC(=O)CC	0.0231 µM

## Input Param request: GI50 | system SK-BR-3 | item C/C=C\[C@H](C)[C@H]1OC1(C)[C@@H](O[Si](C)(C)C(C)(C)C)[C@@H](CO[Si](C)(C)C(C)(C)C)C(=O)[C@@H](CO[Si](C)(C)C(C)(C)C)[C@H](CC(=O)CC)O[Si](C)(C)C(C)(C)C (stereo partly shown) [Compound 30a]
## Output 8.56 µM

## Input Param request: GI50 | system SK-BR-3 | item C/C=C\[C@H](C)[C@H]1OC1(C)[C@@H](O[Si](C)(C)C(C)(C)C)[C@@H](CO)C(=O)[C@@H](CO)[C@H](O)CC(=O)CC (stereo partly shown) [31b + 31d]
## Output 20.2 µM

## Input Param request: GI50 | system SK-BR-3 | item C/C=C\[C@H](C)[C@H]1OC1(C)[C@@H](O)[C@@H](CO)C(=O)[C@H](CO)[C@H](O)CC(=O)CC (stereo partly shown)
## Output 5.07 µM

## Input Param request: GI50 | system SK-BR-3 | item "C/C=C\[C@H](C)[C@H]1O[C@@]1(C)[C@@H](O)[C@@H](CO)C(=O)[C@@H](CO)[C@@H](O)CC(=O)CC"
## Output 1.16 µM

## Input Param request: GI50 | system SK-BR-3 | item C/C=C\[C@H](C)[C@H]1OC1(C)[C@@H](O[Si](C)(C)C(C)(C)C)[C@@H](CO)C(=O)[C@H](CO)[C@H](O)CC(=O)CC (stereo partly shown) [20b + 20d]
## Output 14.9 µM

## Input Param request: GI50 | system SK-BR-3 | item C/C=C\[C@H](C)[C@H]1OC1(C)[C@@H](O[Si](C)(C)C(C)(C)C)[C@@H](CO[Si](C)(C)C(C)(C)C)C(=O)[C@H](CO[Si](C)(C)C(C)(C)C)[C@H](CC(=O)CC)O[Si](C)(C)C(C)(C)C (stereo partly shown) [Compound 19a]
## Output 12.1 µM

## Input Param request: GI50 | system SK-BR-3 | item "C/C=C\[C@H](C)[C@H]1O[C@@]1(C)[C@@H](O)[C@@H](CO)C(=O)[C@H](CO)[C@@H](O)CC(=O)CC"
## Output 0.0303 µM

## Input Param request: GI50 | system SK-BR-3 | item C/C=C\[C@H](C)[C@H]1OC1(C)[C@@H](O[Si](C)(C)C(C)(C)C)[C@@H](CO)C(=O)[C@H](CO)[C@@H](O)CC(=O)CC (stereo partly shown) [20a + 20c]
## Output 11.1 µM
